Test system: CYP3A4 (Homo sapiens, UniProt P08684)
Sequence (P08684 2-503): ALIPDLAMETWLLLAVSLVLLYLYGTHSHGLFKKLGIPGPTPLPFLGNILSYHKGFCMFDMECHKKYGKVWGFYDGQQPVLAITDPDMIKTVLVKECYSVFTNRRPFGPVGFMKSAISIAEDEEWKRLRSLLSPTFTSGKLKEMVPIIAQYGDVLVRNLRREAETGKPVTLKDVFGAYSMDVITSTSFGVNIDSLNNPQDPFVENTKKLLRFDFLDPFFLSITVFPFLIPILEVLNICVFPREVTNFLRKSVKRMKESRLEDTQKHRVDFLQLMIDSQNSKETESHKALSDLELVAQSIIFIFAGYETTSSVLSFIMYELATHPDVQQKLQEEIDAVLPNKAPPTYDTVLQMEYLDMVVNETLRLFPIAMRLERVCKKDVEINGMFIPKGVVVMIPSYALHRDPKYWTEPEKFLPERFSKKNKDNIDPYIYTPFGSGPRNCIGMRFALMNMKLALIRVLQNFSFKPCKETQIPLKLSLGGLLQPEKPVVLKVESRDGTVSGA
Recorded endpoint: Kd (µM)
# value in µM; strip the unit string

Task: Hello, I am looking for reported Kd with CYP3A4 (Homo sapiens, UniProt P08684) for CC/C=C\C/C=C\C/C=C\C/C=C\C/C=C\C/C=C\CCC(=O)NCC(=O)O . Could you help?
Output: 20.3

====

As a worked illustration, we turn to IC50 data collected for Fatty Acid Amide Hydrolase (FAAH) (Homo sapiens, UniProt O00519).
The reply should read as a number followed by its unit.

Task: Hello, I am looking for reported IC50 with Fatty Acid Amide Hydrolase (FAAH) (Homo sapiens, UniProt O00519) for CCCCC/C=C\C/C=C\C/C=C\C/C=C\CCCC(=O)NCC(=O)O . Could you help?
Output: 14.2 µM

Task: Hello, I am looking for reported IC50 with Fatty Acid Amide Hydrolase (FAAH) (Homo sapiens, UniProt O00519) for CC/C=C\C/C=C\C/C=C\C/C=C\C/C=C\C/C=C\CCC(=O)NCC(=O)O . Could you help?
Output: 35.3 µM

====

Test system: human CYP2J2 (Homo sapiens)
Sequence (P51589 whole entry): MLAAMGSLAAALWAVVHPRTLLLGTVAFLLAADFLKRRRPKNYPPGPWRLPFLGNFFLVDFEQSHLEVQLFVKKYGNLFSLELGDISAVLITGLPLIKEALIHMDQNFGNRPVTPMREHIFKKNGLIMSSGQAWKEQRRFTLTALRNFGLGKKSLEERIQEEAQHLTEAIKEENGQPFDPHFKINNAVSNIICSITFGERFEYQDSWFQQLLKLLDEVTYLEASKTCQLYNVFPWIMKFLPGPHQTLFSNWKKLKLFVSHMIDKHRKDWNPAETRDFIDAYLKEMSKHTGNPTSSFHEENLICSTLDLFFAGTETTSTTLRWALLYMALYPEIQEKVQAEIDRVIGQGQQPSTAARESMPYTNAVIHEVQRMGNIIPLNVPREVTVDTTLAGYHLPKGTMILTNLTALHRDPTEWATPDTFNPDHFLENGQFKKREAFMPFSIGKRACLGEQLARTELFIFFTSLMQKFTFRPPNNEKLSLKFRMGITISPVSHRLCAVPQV
Recorded endpoint: Kd (nM)
# value in nM; strip the unit string

• CCCCC/C=C\C/C=C\C/C=C\C/C=C\CCCC(=O)NCC(=O)O = 3300

Task: Hello, I am looking for reported Kd with human CYP2J2 (Homo sapiens) for CC/C=C\C/C=C\C/C=C\C/C=C\C/C=C\C/C=C\CCC(=O)NCC(=O)O . Could you help?
Output: 2470
